// values below are pIC50; system is Glycogen synthase kinase-3 beta (Homo sapiens, UniProt P49841)
Sequence (P49841 whole entry): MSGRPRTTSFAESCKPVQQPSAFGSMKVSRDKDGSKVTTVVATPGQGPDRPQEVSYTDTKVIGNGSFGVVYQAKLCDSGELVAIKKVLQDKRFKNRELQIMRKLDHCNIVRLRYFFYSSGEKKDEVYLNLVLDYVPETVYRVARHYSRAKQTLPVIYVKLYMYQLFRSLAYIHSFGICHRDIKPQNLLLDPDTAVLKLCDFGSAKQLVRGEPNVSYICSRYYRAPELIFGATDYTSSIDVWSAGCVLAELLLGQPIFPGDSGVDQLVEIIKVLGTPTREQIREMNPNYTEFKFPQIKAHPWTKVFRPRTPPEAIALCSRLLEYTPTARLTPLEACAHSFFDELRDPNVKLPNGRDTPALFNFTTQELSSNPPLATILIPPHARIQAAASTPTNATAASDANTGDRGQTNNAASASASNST
pIC50: −log10 of the molar value.
experimental_endpoint: pIC50

Prompt: Request: pIC50, test system Glycogen synthase kinase-3 beta (Homo sapiens, UniProt P49841), entry COc1cccc(-c2cn(C)c3c(N=NCc4ccncc4)ncnc23)c1
Response: 6.30

Prompt: Short answer please: pIC50, Glycogen synthase kinase-3 beta (Homo sapiens, UniProt P49841), entry COc1cccc(-n2cnc3c(N=NCc4ccncc4)ncnc32)c1
Response: 6.20
